System: K5
Experiment: cells
Assay type: functional, cell-based, Homo sapiens
Settings: Homo sapiens, K5
Description: SANGER: Inhibition of human K5 cell growth in a cell viability assay.
Here, each record is paired with measured IC50 data.

>>> result("C=CC(=O)N1CCCC(Nc2nc(Nc3ccc(N(C)C(=O)CC)cc3)nc3[nH]cnc23)C1 (stereo not drawn)")
"> 10200 nM"

In the following, a different compound is considered.
Consider COc1ccc(N(C(=O)Oc2c(C)cccc2C)c2ccnc(Nc3ccc(N4CCN(C)CC4)cc3)n2)c(OC)c1 . Its measured IC50 is > 5120 nM

* * *

Parameter IC50: see the listing below.
Test system: IGROV-1;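 further: reduction of IGROV-1 cell growth, read out with a viability assay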
Assay: cells
Format: functional, cell-based
Conditions: Homo sapiens
Description: SANGER: Inhibition of human IGROV-1 cell growth in a cell viability assay.
Please state the figure in nM; there is no need to write the unit.

>>> recordednumber("OC[C@H](Cc1ccccc1)Nc1nc(Oc2ccc3c(c2)CCC3)nc2c1ncn2Cc1ccc(-c2ccccc2)cc1")
8450

Now consider the entry below.
Notebook: NC1(c2ccc(-c3nc4ccn5c(=O)[nH]nc5c4cc3-c3ccccc3)cc2)CCC1 , IC50 read as 552

Data origin, for the record: ChEMBL document CHEMBL1201861
